# kon per record follows
Target or test system: T1, Human TNFR2 recombinant protein (Sino 10417-H08H) (human, UniProt P20333 23-257)
T1 construct: also called hTNFR2 (His tag)
T1 sequence (looked up): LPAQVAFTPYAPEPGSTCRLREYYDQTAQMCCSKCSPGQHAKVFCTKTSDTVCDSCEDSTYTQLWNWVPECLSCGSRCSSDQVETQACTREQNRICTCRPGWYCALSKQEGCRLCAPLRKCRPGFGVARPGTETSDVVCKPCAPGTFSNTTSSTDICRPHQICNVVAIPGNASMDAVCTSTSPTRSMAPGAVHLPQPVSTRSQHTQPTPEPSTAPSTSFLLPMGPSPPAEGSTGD
Experiment summary: SPR Biacore, antibody on Protein A chip, TNFR2 analyte
Give the number first and the unit second.

// worked examples, kon included
May I ask what kon has been recorded for TNFR2 antibody #365 (antibody, V domains shown) VH: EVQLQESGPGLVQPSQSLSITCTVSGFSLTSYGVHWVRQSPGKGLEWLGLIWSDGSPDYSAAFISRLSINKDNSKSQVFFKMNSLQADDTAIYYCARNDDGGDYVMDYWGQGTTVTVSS VL: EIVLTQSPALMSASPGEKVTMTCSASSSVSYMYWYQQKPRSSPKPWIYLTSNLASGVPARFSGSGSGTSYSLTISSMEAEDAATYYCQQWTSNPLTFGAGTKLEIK ?
2.2e+06 M⁻¹ s⁻¹

May I ask what kon has been recorded for TNFR2 antibody #309 (antibody, V domains shown) VH: EVQLQESGAELVKPGASVKLSCKASGYTFTSYWIHWVKLRPGQGFEWIGEINPNNGGTDYNEKFKRKATLTVDKSSSTAYMELSSLTSEDSAIYYCTIDSMITTTWFAYWGQGTTVTVSS VL: EIVMTQSQKLMSTVVGDRVSVTCKASQNVGTNVAWFQQKPGQSPKALINSASYRYSGVPDRFTGSGSGTDFTLTISSVQSEDLAEYFCQQYNSYPFTFGSGTKLEIK ?
519000 M⁻¹ s⁻¹

May I ask what kon has been recorded for TNFR2 antibody #088 (antibody, V domains shown) VH: EVQLQESGGGLVQPGGSLNLSCAASGFAFSTYDLSWVRQTPGKRLEWVAYINNGGISTYYSDTVKGRFTITRDNAKNTLYLQMSSLKSEDTAMYYCVRGPFYGSANYFDYWGQGTTVTVSS VL: DILMTQSPASLSLFVGETVTITCRASENIYSNLAWYQQKQGKSPQLLVYDATKLAEGVPSRFSGSESGTQYSLKINSLQSEDFGTYYCQHFWVTPWTFGGGTKLEIK ?
510000 M⁻¹ s⁻¹

---
May I ask what kon has been recorded for TNFR2 antibody #219 (antibody, V domains shown) VH: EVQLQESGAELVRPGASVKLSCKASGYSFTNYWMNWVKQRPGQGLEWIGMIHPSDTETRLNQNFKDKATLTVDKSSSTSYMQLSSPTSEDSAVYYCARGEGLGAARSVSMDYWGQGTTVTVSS VL: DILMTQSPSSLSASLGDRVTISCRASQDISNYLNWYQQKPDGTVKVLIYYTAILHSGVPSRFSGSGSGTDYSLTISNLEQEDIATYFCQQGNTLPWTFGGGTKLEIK ?
358000 M⁻¹ s⁻¹

May I ask what kon has been recorded for TNFR2 antibody #133 (antibody, V domains shown) VH: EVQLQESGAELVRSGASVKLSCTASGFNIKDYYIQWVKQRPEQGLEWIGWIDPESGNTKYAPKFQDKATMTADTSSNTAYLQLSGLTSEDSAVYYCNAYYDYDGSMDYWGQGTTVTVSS VL: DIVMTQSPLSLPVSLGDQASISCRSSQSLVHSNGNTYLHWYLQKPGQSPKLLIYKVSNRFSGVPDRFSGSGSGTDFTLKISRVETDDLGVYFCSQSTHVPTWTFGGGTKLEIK ?
1.32e+06 M⁻¹ s⁻¹

Hello, the source for this data is patent US20220017630A1, in case you need it.
